- STUDY TARGET: folate receptor (FR) on FR-positive KB cells (Homo sapiens, UniProt P15328)
- Construct: FR-positive KB cells were gently trypsinized; endogenous in cells; host or cells: KB cells
- Sequence (P15328 25-234): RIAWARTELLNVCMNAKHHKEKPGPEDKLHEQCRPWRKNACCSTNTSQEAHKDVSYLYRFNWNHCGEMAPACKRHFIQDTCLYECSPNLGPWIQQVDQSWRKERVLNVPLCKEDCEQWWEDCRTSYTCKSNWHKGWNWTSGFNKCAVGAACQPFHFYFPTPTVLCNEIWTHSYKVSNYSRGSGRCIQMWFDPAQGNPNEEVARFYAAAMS
- ASSAY SUMMARY: Relative affinity assay (blocking of 3H-folic acid binding to KB cells)
- RUN CONDITIONS: 100 nM 3H-folic acid, KB cells, 15 min on ice, triplicate
pIC50: −log10 of the molar value.
QUANTITY: pIC50

{"columns": ["MOLECULE", "STUDY TARGET", "pIC50"],
 "data": [
  ["Nc1nc2ncc(CNc3ccc(C(=O)N[C@H](CCC(=O)NC[C@@H]4[NH2+][Re-]56(=[O])[S]C[C@@H](C(=O)O)[N]5C(=O)[C@H](CC(=O)O)[N]6C4=O)C(=O)O)cc3)nc2c(=O)[nH]1 (single isomer, unassigned; isomer 2) [EC20:Re isomer 2]", "folate receptor (FR) on FR-positive KB cells (Homo sapiens, UniProt P15328)", 7.07],
  ["Nc1nc2ncc(CNc3ccc(C(=O)NC(CCC(=O)NCC(N)C(=O)NC(CC(=O)O)C(=O)NC(CS)C(=O)O)C(=O)O)cc3)nc2c(=O)[nH]1 (stereo not drawn)", "folate receptor (FR) on FR-positive KB cells (Homo sapiens, UniProt P15328)", 6.89],
  ["Nc1nc2ncc(CNc3ccc(C(=O)N[C@H](CCC(=O)NC[C@@H]4[NH2+][Re-]56(=[O])[S]C[C@@H](C(=O)O)[N]5C(=O)[C@H](CC(=O)O)[N]6C4=O)C(=O)O)cc3)nc2c(=O)[nH]1 (single isomer, unassigned; isomer 1) [EC20:Re isomer 1]", "folate receptor (FR) on FR-positive KB cells (Homo sapiens, UniProt P15328)", 7.08]
]}
